pKi: −log10 of the molar value. Where a SMILES comes first, the peptide text is derived from it. Bridges are numbered along the chain shown (N, C = ends). [ ]: non-standard residue; d: D form. Ala(1-amidino-4-piperidyl) = N=C(N)N1CCC(C[C@H](N)C(=O)O)CC1
Entries below carry reported pKi on Tissue-type plasminogen activator (Homo sapiens, UniProt P00750).
Sequence (P00750 whole entry): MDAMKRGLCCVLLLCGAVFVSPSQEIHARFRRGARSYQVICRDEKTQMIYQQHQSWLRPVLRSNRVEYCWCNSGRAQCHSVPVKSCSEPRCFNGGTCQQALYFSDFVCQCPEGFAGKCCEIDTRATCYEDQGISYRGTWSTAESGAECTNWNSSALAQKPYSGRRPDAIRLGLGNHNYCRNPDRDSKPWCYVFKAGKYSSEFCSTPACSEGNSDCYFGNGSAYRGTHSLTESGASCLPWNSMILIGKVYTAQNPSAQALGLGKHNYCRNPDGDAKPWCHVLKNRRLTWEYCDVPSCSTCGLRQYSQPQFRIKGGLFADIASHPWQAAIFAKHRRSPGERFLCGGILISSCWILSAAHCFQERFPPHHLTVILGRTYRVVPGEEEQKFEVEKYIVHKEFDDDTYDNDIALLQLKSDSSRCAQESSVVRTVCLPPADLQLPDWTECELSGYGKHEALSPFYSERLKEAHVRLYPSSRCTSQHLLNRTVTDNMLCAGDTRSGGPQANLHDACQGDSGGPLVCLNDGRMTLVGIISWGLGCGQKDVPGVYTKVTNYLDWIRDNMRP

COMPOUND	TARGET OF ASSAY	pKi
CC(C)C[C@@H]1NC(=O)[C@H](Cc2ccc(O)cc2)NC(=O)[C@H](CCCNC(=N)N)NC(=O)[C@H](CO)NC(=O)[C@H](Cc2ccc(O)cc2)NC(=O)[C@H](C)NC(=O)[C@@H]2CCCN2C(=O)[C@@H](N)CSSC[C@@H](C(=O)O)NC(=O)[C@H](CC(=O)O)NC1=O (H-CPAYSRYLDC-OH; disulfide 1-10)	Tissue-type plasminogen activator (Homo sapiens, UniProt P00750)	< 3.00
CC(C)C[C@@H]1NC(=O)[C@H](C)NC(=O)[C@H](CC2CCN(C(=N)N)CC2)NC(=O)[C@H](Cc2ccccc2)NC(=O)[C@H](CCCNC(=N)N)NC(=O)[C@H](CCCCN)NC(=O)[C@@H]2CCCN2C(=O)[C@@H](N)CSSC[C@@H](C(=O)O)NC(=O)[C@H](Cc2ccccc2)NC1=O (H-CPKRF[Ala(1-amidino-4-piperidyl)]ALFC-OH; disulfide 1-10)	Tissue-type plasminogen activator (Homo sapiens, UniProt P00750)	< 3.00
CC(C)C[C@@H]1NC(=O)[C@H](Cc2ccc(O)cc2)NC(=O)[C@H](CC2CCN(C(=N)N)CC2)NC(=O)[C@H](CO)NC(=O)[C@H](Cc2ccc(O)cc2)NC(=O)[C@H](C)NC(=O)[C@@H]2CCCN2C(=O)[C@@H](N)CSSC[C@@H](C(=O)O)NC(=O)[C@H](CC(=O)O)NC1=O (H-CPAYS[Ala(1-amidino-4-piperidyl)]YLDC-OH; disulfide 1-10)	Tissue-type plasminogen activator (Homo sapiens, UniProt P00750)	< 3.00
CC(C)C[C@@H]1NC(=O)[C@H](C)NC(=O)[C@H](CC2CCN(C(=N)N)CC2)NC(=O)[C@H](Cc2ccccc2)NC(=O)[C@H](CCCNC(=N)N)NC(=O)[C@H](C)NC(=O)[C@@H]2CCCN2C(=O)[C@@H](N)CSSC[C@@H](C(=O)O)NC(=O)[C@H](Cc2c[nH]c3ccccc23)NC1=O (H-CPARF[Ala(1-amidino-4-piperidyl)]ALWC-OH; disulfide 1-10)	Tissue-type plasminogen activator (Homo sapiens, UniProt P00750)	< 3.00
CC(C)C[C@@H]1NC(=O)[C@H](C)NC(=O)[C@H](CC2CCN(C(=N)N)CC2)NC(=O)[C@H](Cc2ccccc2)NC(=O)[C@H](CCCNC(=N)N)NC(=O)[C@H](C)NC(=O)[C@@H]2CCCN2C(=O)[C@@H](N)CSSC[C@@H](C(=O)O)NC(=O)[C@H](Cc2ccccc2)NC1=O (H-CPARF[Ala(1-amidino-4-piperidyl)]ALFC-OH; disulfide 1-10)	Tissue-type plasminogen activator (Homo sapiens, UniProt P00750)	< 3.00

====

- TARGET OF ASSAY: Tissue-type plasminogen activator (Mus musculus)
- Sequence (P11214 whole entry): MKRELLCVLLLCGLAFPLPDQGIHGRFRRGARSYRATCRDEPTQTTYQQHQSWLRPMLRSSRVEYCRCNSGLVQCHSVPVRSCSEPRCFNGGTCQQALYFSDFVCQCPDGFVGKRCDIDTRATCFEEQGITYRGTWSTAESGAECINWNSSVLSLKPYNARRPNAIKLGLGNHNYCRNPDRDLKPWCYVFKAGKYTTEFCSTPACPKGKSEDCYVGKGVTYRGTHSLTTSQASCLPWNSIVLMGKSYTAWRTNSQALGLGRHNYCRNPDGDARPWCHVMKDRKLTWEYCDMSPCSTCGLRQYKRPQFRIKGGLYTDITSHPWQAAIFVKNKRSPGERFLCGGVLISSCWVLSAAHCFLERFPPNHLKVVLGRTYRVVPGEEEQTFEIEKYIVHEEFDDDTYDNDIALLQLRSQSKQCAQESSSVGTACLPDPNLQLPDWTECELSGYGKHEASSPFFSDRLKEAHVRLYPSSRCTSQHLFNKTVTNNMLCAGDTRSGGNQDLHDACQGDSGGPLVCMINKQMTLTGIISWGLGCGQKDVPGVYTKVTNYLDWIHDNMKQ
Where a SMILES comes first, the peptide text is derived from it. Bridges are numbered along the chain shown (N, C = ends). [ ]: non-standard residue; d: D form. Ala(1-amidino-4-piperidyl) = N=C(N)N1CCC(C[C@H](N)C(=O)O)CC1
READOUT NAME: Ki

MOLECULE	VALUE OBSERVED
CC(C)C[C@@H]1NC(=O)[C@H](C)NC(=O)[C@H](CC2CCN(C(=N)N)CC2)NC(=O)[C@H](Cc2ccccc2)NC(=O)[C@H](CCCNC(=N)N)NC(=O)[C@H](C)NC(=O)[C@@H]2CCCN2C(=O)[C@@H](N)CSSC[C@@H](C(=O)O)NC(=O)[C@H](Cc2c[nH]c3ccccc23)NC1=O (H-CPARF[Ala(1-amidino-4-piperidyl)]ALWC-OH; disulfide 1-10)	> 1000 µM
